target: α-synuclein (UniProt P37840 1-140); experiment: cell-based or functional assay; note: test concentration or dose not given here
Non-standard residues stand in square brackets, D forms with d.
measured_attribute: % increase in Lag phase (%)

H-[dQ][dY][dK][dV][dL][dI]-NH2 (SMILES CC[C@@H](C)[C@@H](NC(=O)[C@@H](CC(C)C)NC(=O)[C@H](NC(=O)[C@@H](CCCCN)NC(=O)[C@@H](Cc1ccc(O)cc1)NC(=O)[C@H](N)CCC(N)=O)C(C)C)C(N)=O) [ZP-0222] = 7.7

1: Ac-[dH][dH][dV][dI][dV][dA]-NH2 (SMILES CC[C@@H](C)[C@@H](NC(=O)[C@H](NC(=O)[C@@H](Cc1c[nH]cn1)NC(=O)[C@@H](Cc1c[nH]cn1)NC(C)=O)C(C)C)C(=O)N[C@@H](C(=O)N[C@H](C)C(N)=O)C(C)C) [ZP-0158]
2: Ac-[dH][dH][dV][dK][dV][dA]-NH2 (SMILES CC(=O)N[C@H](Cc1c[nH]cn1)C(=O)N[C@H](Cc1c[nH]cn1)C(=O)N[C@@H](C(=O)N[C@H](CCCCN)C(=O)N[C@@H](C(=O)N[C@H](C)C(N)=O)C(C)C)C(C)C) [ZP-0161]
Could you kindly indicate whether 1 or 2 has the higher % increase in Lag phase value? To answer, give the label that identifies your chosen option.
1
